Give measured Percent Effect for each item. Keep answers brief.
Tested on: Wolbachia pipientis
ASSAY_METHOD_TEXT: Anti-Wolbachia Cell-Based Screen
Type: functional
Set-up: scale not given: in the data most compounds retested in dose-response had high values
STUDY_CONDITIONS: 5 µM
Screen size: about 48,000 compounds; about 13,000 (27%) showed an effect of 50% or more. Some of the results follow.
Give bare numbers, in %.

Solved cases below.
CHEMICAL_STRUCTURE: COC[C@@]12CCO[C@@H]1CCN(Cc1ccc(C)s1)C2.O=C(O)C(F)(F)F
STUDY_TARGET: Wolbachia pipientis
METRIC: Percent Effect
OBSERVED_MEASUREMENT: -10.75

CHEMICAL_STRUCTURE: COC(=O)c1cc2n(n1)CCN(C(=O)c1csc(CN(C)C)n1)C2
STUDY_TARGET: Wolbachia pipientis
METRIC: Percent Effect
OBSERVED_MEASUREMENT: 85.52

CHEMICAL_STRUCTURE: Cc1ncsc1CN1CC[C@H]2OCC[C@@]2(C(=O)N2CCCO2)C1
STUDY_TARGET: Wolbachia pipientis
METRIC: Percent Effect
OBSERVED_MEASUREMENT: -1.32

CHEMICAL_STRUCTURE: Cc1cc(C)c(C(=O)N2CCn3nc(C(=O)NCCN(C)C)cc3C2)[nH]1
STUDY_TARGET: Wolbachia pipientis
METRIC: Percent Effect
OBSERVED_MEASUREMENT: -6.569

Exercise: Looking for the measured Percent Effect of CCCc1nc(C(=O)N2CCN(C(=O)OC)CC2)cs1 , can you help?
Solution: -2.631
